Reference source: patent EP1247803A2

The reader will find reported PDGF Kinase %Inhibition values listed item by item below.
biological target: PDGF-R (Homo sapiens, UniProt P09619); assay: PDGF-R ELISA; assay type: cell-based
Sequence (P09619 33-1106, species assumed): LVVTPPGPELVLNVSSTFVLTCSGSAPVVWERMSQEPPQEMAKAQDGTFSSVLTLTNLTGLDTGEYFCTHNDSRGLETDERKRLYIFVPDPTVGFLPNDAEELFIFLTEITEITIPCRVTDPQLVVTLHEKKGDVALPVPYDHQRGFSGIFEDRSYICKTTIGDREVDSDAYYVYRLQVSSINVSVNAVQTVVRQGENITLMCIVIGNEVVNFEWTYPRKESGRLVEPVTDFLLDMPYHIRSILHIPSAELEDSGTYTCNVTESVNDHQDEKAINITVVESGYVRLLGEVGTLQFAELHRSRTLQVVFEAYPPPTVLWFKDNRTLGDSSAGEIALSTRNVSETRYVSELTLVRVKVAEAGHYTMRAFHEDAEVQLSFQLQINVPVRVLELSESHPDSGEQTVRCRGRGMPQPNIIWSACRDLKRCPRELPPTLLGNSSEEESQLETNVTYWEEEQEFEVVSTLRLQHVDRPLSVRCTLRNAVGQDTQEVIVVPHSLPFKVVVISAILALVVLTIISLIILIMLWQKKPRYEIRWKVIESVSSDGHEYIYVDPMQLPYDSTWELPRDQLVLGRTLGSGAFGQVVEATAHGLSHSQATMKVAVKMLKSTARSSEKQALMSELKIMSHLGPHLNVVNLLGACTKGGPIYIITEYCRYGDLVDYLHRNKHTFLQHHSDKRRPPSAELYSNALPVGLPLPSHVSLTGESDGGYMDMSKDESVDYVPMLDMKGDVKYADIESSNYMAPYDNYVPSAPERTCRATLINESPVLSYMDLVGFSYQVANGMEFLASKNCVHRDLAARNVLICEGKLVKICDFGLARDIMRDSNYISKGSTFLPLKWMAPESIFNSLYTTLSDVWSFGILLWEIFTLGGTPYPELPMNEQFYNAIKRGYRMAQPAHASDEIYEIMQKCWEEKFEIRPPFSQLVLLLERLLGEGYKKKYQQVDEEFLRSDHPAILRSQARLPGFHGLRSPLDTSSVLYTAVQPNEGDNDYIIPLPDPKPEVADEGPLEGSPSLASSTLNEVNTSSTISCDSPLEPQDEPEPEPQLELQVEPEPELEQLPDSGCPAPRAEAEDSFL
measurement kind: PDGF Kinase %Inhibition (%)

| compound structure | measurement kind | result units | recorded measurement |
| --- | --- | --- | --- |
| COc1c(C(C)C)cc(C=C2C(=O)Nc3ccc(CCCl)cc32)cc1C(C)C | PDGF Kinase %Inhibition | % | 36.1 |
| CCc1ccc(C=C2C(=O)Nc3ccc(CCCl)cc32)s1 | PDGF Kinase %Inhibition | % | -7.0 |
| O=C1Nc2ccc(I)cc2C1=Cc1ccc(-c2ccccc2Cl)o1 | PDGF Kinase %Inhibition | % | 2.4 |
| O=C1Nc2ccc(CCCl)cc2C1=Cc1cccnc1 | PDGF Kinase %Inhibition | % | 0.8 |
| CCc1cc(CC)c(C=C2C(=O)Nc3c(Br)cc(Br)cc32)[nH]1 | PDGF Kinase %Inhibition | % | -4.5 |
| CNS(=O)(=O)c1ccc2c(c1)C(=Cc1ccc(Br)o1)C(=O)N2 | PDGF Kinase %Inhibition | % | 39.1 |
| O=C1Nc2ccc(S(=O)(=O)Nc3ccc(C(F)(F)F)cc3)cc2C1=Cc1cccc(F)c1O | PDGF Kinase %Inhibition | % | 13.0 |
| Cc1c(Br)ccc2c1C(=Cc1cc([N+](=O)[O-])ccc1O)C(=O)N2 | PDGF Kinase %Inhibition | % | -6.4 |
| O=C1Nc2ccc(CCCl)cc2C1=Cc1ccc(O)cc1O | PDGF Kinase %Inhibition | % | 7.5 |
| CC(C)c1cc(C=C2C(=O)Nc3c(Br)cc(Br)cc32)cc(C(C)C)c1Oc1ccccc1 | PDGF Kinase %Inhibition | % | -9.4 |
| Cc1c(Br)ccc2c1C(=Cc1ccc(Br)s1)C(=O)N2 | PDGF Kinase %Inhibition | % | 9.1 |
| O=C(O)COc1ccccc1C=C1C(=O)Nc2ccc(S(=O)(=O)Nc3ccc(C(F)(F)F)cc3)cc21 | PDGF Kinase %Inhibition | % | 13.8 |
| COc1c(C)cc(C=C2C(=O)Nc3ccc(S(=O)(=O)Nc4ccc(C(F)(F)F)cc4)cc32)cc1C | PDGF Kinase %Inhibition | % | 22.4 |
| COc1c(O)ccc(C=C2C(=O)Nc3ccc(CCCl)cc32)c1[N+](=O)[O-] | PDGF Kinase %Inhibition | % | -4.4 |
| CNS(=O)(=O)c1ccc2c(c1)C(=Cc1cc(OC)c(OC)cc1OC)C(=O)N2 | PDGF Kinase %Inhibition | % | 19.0 |
| O=C1Nc2ccc(S(=O)(=O)N3CCOCC3)cc2C1=Cc1ccc(Br)o1 | PDGF Kinase %Inhibition | % | -17.8 |
| CNS(=O)(=O)c1ccc2c(c1)C(=Cc1cc(C)c(OC)c(C)c1)C(=O)N2 | PDGF Kinase %Inhibition | % | 1.3 |
| CNS(=O)(=O)c1ccc2c(c1)C(=Cc1cc(Br)ccc1O)C(=O)N2 | PDGF Kinase %Inhibition | % | 33.8 |
